experiment: qHTS of pediatric cancer cell lines to identify multiple opportunities for drug repurposing: Confirmatory screen for LAN-5 cells (AID 1347113); conditions: LAN-5 neuroblastoma cell viability; series mostly up to 45.9 µM; also: nearly all actives have a fitted effect of over 65% in size
Inconclusive results are not listed. The source made the active and inactive calls. Calls follow the shape of the dose curve; as a rule, active = well fitted cell-killing curve with a large enough effect; inconclusive = small, poorly fitted or top-dose-only effect, or effect the other way; inactive = no such curve, though single readings can be large or run the other way.
# output must be one of active, inactive

CC1CC2C3CCC4=CC(=O)C=C[C@]4(C)[C@@]3(F)[C@@H](O)C[C@]2(C)[C@@]1(O)C(=O)CO (stereo not given in full): inactive

Q: Test call, this compound: CCC(=O)O[C@]1(C(=O)SCF)[C@H](C)C[C@H]2[C@@H]3C[C@H](F)C4=CC(=O)C=C[C@]4(C)[C@@]3(F)[C@@H](O)C[C@@]21C
Ans: inactive

Q: Recorded test outcome, item CC(C)NCC(O)c1ccc(NS(C)(=O)=O)cc1 (stereo not given)
Ans: inactive

Q: // outcome(item) with item = CCc1c2c(nc3ccc(OC(=O)N4CCC(N5CCCCC5)CC4)cc13)-c1cc3c(c(=O)n1C2)COC(=O)[C@]3(O)CC
Ans: active

Q: Given Cn1nnc2c(C(N)=O)ncn2c1=O , state the outcome it received in this test.
Ans: inactive
